# assay.target: human PD-L1 (Homo sapiens (Human))
# method: Biofilm interferometry (BLI, OctetRED) binding to human PD-L1/AVI
# condition.set: 1:1 binding model, read-out: Kdis
measured.attribute: koff (s⁻¹)

# example entries with known answers
Hello, please tell me recorded koff for this one: Cc1c(CNc2ccc(CN[C@H](CO)C(=O)O)c(OCc3cccc(C#N)c3)c2)cccc1-c1ccccc1
0.00118

Hello, please tell me recorded koff for this one: Cc1c(COc2ccc(CNC(CO)C(=O)O)c(OCc3cncc(C#N)c3)c2)cccc1-c1ccccc1 (centres unmarked) [Compound 37, reference compound]
0.000851

Hello, please tell me recorded koff for this one: Cc1c(CNc2ccc(CN[C@H](CO)C(=O)O)c(OCc3cncc(C#N)c3)c2)cccc1-c1ccccc1
0.000251

[P] COc1cc(NCc2cccc(-c3ccccc3)c2C)c(Cl)cc1CN[C@H](CO)C(=O)O
[Q] Cc1cc(CN[C@H](CO)C(=O)O)c(OCc2cncc(C#N)c2)cc1NCc1cccc(-c2ccccc2)c1C
Among P and Q , which shows a numerically higher koff result? Return value: the label identifying the chosen record.
P
(P: 0.000664 s⁻¹, Q: 3.53e-05 s⁻¹)

###

# assay.target: PD-1/PD-L1 interaction (Homo sapiens (Human))
# Sequence (Q9NZQ7 19-238): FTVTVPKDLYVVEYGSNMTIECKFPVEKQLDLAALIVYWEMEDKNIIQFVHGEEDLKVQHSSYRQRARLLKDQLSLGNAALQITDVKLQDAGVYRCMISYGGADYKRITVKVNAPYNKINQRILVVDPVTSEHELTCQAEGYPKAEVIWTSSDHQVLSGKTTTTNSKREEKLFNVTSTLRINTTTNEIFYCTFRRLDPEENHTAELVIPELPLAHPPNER
# method: PD-1/PD-L1 Binding Assay kit (Cisbio), HTRF
# condition.set: 8-10 concentrations, read-out: IC50 of inhibition of PD-1/PD-L1 interaction
pIC50: −log10 of the molar value.
measured.attribute: pIC50

# example entries with known answers
Hello, please tell me recorded pIC50 for this one: Cc1c(CNc2ccc(CN[C@H](CO)C(=O)O)c(OCc3cccc(C#N)c3)c2)cccc1-c1ccc2c(c1)OCCO2 [Compound 34]
6.36

Hello, please tell me recorded pIC50 for this one: N#Cc1cncc(COc2cc(NCc3cccc(-c4ccccc4)c3C(F)(F)F)ccc2CN[C@H](CO)C(=O)O)c1 [Compound 30]
5.53

Hello, please tell me recorded pIC50 for this one: Cc1cc(CN[C@H](CO)C(=O)O)c(OCc2cccnc2)cc1NCc1cccc(-c2ccccc2)c1C [Compound 17]
7.04

Hello, please tell me recorded pIC50 for this one: Cc1cc(CN[C@H](CCO)C(=O)O)c(OCc2cncc(C#N)c2)cc1NCc1cccc(-c2ccccc2)c1C [Compound 24]
5.87

[P] Cc1c(NCc2ccc(CN[C@H](CO)C(=O)O)c(OCc3cncc(C#N)c3)c2)cccc1-c1ccccc1 [Compound 28]
[Q] Cc1c(CNc2ccc(CNC(CO)CO)c(OCc3cccc(C#N)c3)c2)cccc1-c1ccccc1 [Compound 3]
[R] Cc1cc(CNC[C@@H](O)CC(=O)O)c(OCc2cncc(C#N)c2)cc1NCc1cccc(-c2ccccc2)c1C [Compound 22]
[S] Cc1c(CNc2ccc(CN[C@H](CO)C(=O)O)c(OCc3cncc(C#N)c3)c2)cccc1-c1ccccc1 [Compound 10]
[T] COc1cc(NCc2cccc(-c3ccccc3)c2C)cc(OCc2cccc(C#N)c2)c1CN[C@H](CO)C(=O)O [Compound 8]
// ascending sort on recorded pIC50 Your task in answering is to list the labels in the requested order.
Q, T, P, S, R
(Q: 5.59, T: 6.17, P: 6.72, S: 7.42, R: 7.77)

[I] Cc1cc(CN[C@H](CO)C(=O)O)c(OCc2cccc(C#N)c2)cc1NCc1cccc(-c2ccccc2)c1C [Compound 19]
[II] Cc1cc(CN2C[C@H](O)C[C@H]2C(=O)O)c(OCc2cncc(C#N)c2)cc1NCc1cccc(-c2ccccc2)c1C [Compound 21]
For the pair I and II , which member has the lower pIC50 number? Return value: the label identifying the chosen record.
I

###

# Tested on: Human peripheral blood mononuclear cells (PBMCs)
# method: Promotion of IFN-γ secretion in PBMCs treated with anti-CD3/anti-CD28 and PDL1/FC fusion protein (ELISA)
# Type: cell-based
# condition.set: compound 1.0 μM, hPD-L1 10.0 μg/mL, 72 h
Some compounds, each annotated with its measured IFN-γ.
Number in pg/mL, nothing else.

Hello, please tell me recorded IFN-γ for this one: COc1nc(OCc2cccc(-c3ccccc3)c2C)ccc1CNCCNC(C)=O
39100

Hello, please tell me recorded IFN-γ for this one: Cc1c(CNc2ccc(CN[C@H](CO)C(=O)O)c(OCc3cncc(C#N)c3)c2)cccc1-c1ccccc1
41500

Hello, please tell me recorded IFN-γ for this one: Cc1cc(CN[C@H](CO)C(=O)O)c(OCc2cncc(C#N)c2)cc1NCc1cccc(-c2ccccc2)c1C
42400

More entries:
Hello, please tell me recorded IFN-γ for this one: Cc1c(C#N)cncc1COc1cc(OCc2cccc(-c3ccccc3)c2C)ccc1CNC(CO)C(=O)O (centres unmarked) [Compound 38, reference compound]
22600

Hello, please tell me recorded IFN-γ for this one: Cc1c(COc2ccc(CNC(CO)C(=O)O)c(OCc3cncc(C#N)c3)c2)cccc1-c1ccccc1 (centres unmarked) [Compound 37, reference compound]
25100

###

# assay.target: human PD-L1 (Homo sapiens (Human), UniProt Q9NZQ7)
# Sequence (Q9NZQ7 19-290): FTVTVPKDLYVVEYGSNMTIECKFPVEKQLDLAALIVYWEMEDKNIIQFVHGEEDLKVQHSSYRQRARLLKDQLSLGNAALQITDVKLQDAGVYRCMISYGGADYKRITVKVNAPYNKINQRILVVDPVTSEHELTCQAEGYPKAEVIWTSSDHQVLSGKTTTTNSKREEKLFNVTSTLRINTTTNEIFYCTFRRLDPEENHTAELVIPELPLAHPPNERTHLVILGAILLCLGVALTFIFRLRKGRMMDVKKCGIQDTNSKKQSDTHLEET
# method: Biofilm interferometry (BLI, OctetRED) binding to human PD-L1/AVI
# condition.set: 1:1 binding model
# Text: In the experiment, the instrument OctectRED of Fortebio Company based on biofilm interferometry (BLI) technology was used to capture human PD-L1/AVI with SA chips. […]
measured.attribute: kon (M⁻¹ s⁻¹)

Hello, please tell me recorded kon for this one: Cc1c(CNc2ccc(CN[C@H](CO)C(=O)O)c(OCc3cncc(C#N)c3)c2)cccc1-c1ccccc1 [Compound 10]
849000

[1] Cc1c(CNc2ccc(CN[C@H](CO)C(=O)O)c(OCc3cccc(C#N)c3)c2)cccc1-c1ccccc1 [Compound 4]
[2] Cc1c(COc2ccc(CNC(CO)C(=O)O)c(OCc3cncc(C#N)c3)c2)cccc1-c1ccccc1 (centres unmarked) [Compound 37, reference compound]
[3] COc1cc(NCc2cccc(-c3ccccc3)c2C)c(Cl)cc1CN[C@H](CO)C(=O)O [Compound 11]
[4] Cc1cc(CN[C@H](CO)C(=O)O)c(OCc2cncc(C#N)c2)cc1NCc1cccc(-c2ccccc2)c1C [Compound 5]
// ascending sort on recorded kon Your task in answering is to list the labels in the requested order.
2, 1, 3, 4

###

# System: Raw cells
# method: Cytotoxicity, Cell Titer-Glo, Raw cells
# Assay type: cell-based
# condition.set: 24 hours incubation; read-out: Raw cells IC50 (cell death)
pIC50: −log10 of the molar value.
Some molecules, each annotated with its measured pIC50.

# example entries with known answers
Hello, please tell me recorded pIC50 for this one: N#Cc1cncc(COc2cc(NCc3cccc(-c4ccccc4)c3Br)ccc2CNC(CO)C(=O)O)c1 (stereo not drawn)
< 4.00

Hello, please tell me recorded pIC50 for this one: Cc1c(CNc2ccc(CN[C@H](CO)C(=O)O)c(OCc3cccc(C#N)c3)c2)cccc1-c1ccc2c(c1)OCCO2
< 4.00

Hello, please tell me recorded pIC50 for this one: Cc1cc(CN[C@H](CO)C(=O)O)c(OCc2cncc(C#N)c2)cc1NCc1cccc(-c2ccccc2)c1C
< 4.00

Hello, please tell me recorded pIC50 for this one: Cc1c(C#N)cncc1COc1cc(OCc2cccc(-c3ccccc3)c2C)ccc1CNC(CO)C(=O)O (stereo not drawn) [Compound 38, reference compound]
4.54

Hello, please tell me recorded pIC50 for this one: COc1cc(NCc2cccc(-c3ccccc3)c2C)c(C)cc1CNC(CO)C(=O)O (stereo not drawn)
< 4.00

Hello, please tell me recorded pIC50 for this one: Cc1cc(CN2C[C@H](O)C[C@H]2C(=O)O)c(OCc2cncc(C#N)c2)cc1NCc1cccc(-c2ccccc2)c1C
4.05

Hello, please tell me recorded pIC50 for this one: Cc1cc(CN[C@H](CO)C(=O)O)c(OCc2cccnc2)cc1NCc1cccc(-c2ccccc2)c1C
4.21

Hello, please tell me recorded pIC50 for this one: Cc1c(CNc2ccc(CN[C@H](CO)C(=O)O)c(OCc3cccc(C#N)c3)c2)cccc1-c1ccccc1
< 4.00

Hello, please tell me recorded pIC50 for this one: COc1cc(NCc2cccc(-c3ccccc3)c2C)cc(OCc2cccc(C#N)c2)c1CN[C@H](CO)C(=O)O
< 4.00

Hello, please tell me recorded pIC50 for this one: Cc1c(COc2ccc(CNC(CO)C(=O)O)c(OCc3cncc(C#N)c3)c2)cccc1-c1ccccc1 (stereo not drawn) [Compound 37, reference compound]
4.51

More entries:
Hello, please tell me recorded pIC50 for this one: Cc1c(CNc2ccc(CN[C@H](CO)C(=O)O)c(OCc3cncc(C#N)c3)c2)cccc1-c1ccccc1
< 4.00

Hello, please tell me recorded pIC50 for this one: Cc1c(CN(C)c2ccc(CNCCO)c(OCc3cccc(C#N)c3)c2)cccc1-c1ccccc1
< 4.00

###

# assay.target: PD-1/PD-L1 interaction (Homo sapiens (Human))
# method: PD-1/PD-L1 Binding Assay kit (Cisbio), HTRF
# condition.set: 8-10 concentrations, read-out: IC50 of inhibition of PD-1/PD-L1 interaction
pIC50: −log10 of the molar value.
measured.attribute: pIC50

# example entries with known answers
Hello, please tell me recorded pIC50 for this one: Cc1cc(CN[C@H](CO)C(=O)O)c(OCc2cncc(C#N)c2)cc1NCc1cccc(-c2ccccc2)c1C [Compound 5]
7.92

Hello, please tell me recorded pIC50 for this one: CCOc1cc(NCc2cccc(-c3ccccc3)c2C)c(C)cc1CN[C@H](CO)C(=O)O [Compound 20]
6.46

Hello, please tell me recorded pIC50 for this one: COc1nc(NCc2cccc(-c3ccccc3)c2C)ccc1CNCCNC(C)=O [Compound 9]
5.37

Hello, please tell me recorded pIC50 for this one: Cc1c(CNc2ccc(CNCCO)c(OCc3cccc(C#N)c3)c2)cccc1-c1ccccc1 [Compound 2]
5.43

Hello, please tell me recorded pIC50 for this one: Cc1c(COc2ccc(CN[C@H](CO)C(=O)O)c(OCc3cncc(C#N)c3)c2)cccc1-c1ccccc1 [Compound 37, reference compound]
6.49

[A] N#Cc1cccc(COc2cc(NCc3cccc(-c4ccccc4)c3Br)ccc2CNC(CO)C(=O)O)c1 (centres unmarked) [Compound 33]
[B] COc1nc(NCc2cccc(-c3ccccc3)c2C)ccc1CN[C@H](CO)C(=O)O [Compound 12]
[C] Cc1c(CNc2ccc(CN[C@H](CO)C(=O)O)c(OCc3cccc(C#N)c3)c2)cccc1-c1ccccc1 [Compound 4]
[D] Cc1cc(CN[C@H](CC(N)=O)C(=O)O)c(OCc2cncc(C#N)c2)cc1NCc1cccc(-c2ccccc2)c1C [Compound 25]
[E] COc1cc(NCc2cccc(-c3ccccc3)c2C)ncc1CN[C@H](CO)C(=O)O [Compound 15]
# sort list by recorded pIC50, greatest to least Your task in answering is to list the labels in the requested order.
D, A, C, E, B
(D: 7.33, A: 6.20, C: 5.94, E: 5.58, B: 5.34)

[A] Cc1c(C#N)cncc1COc1cc(OCc2cccc(-c3ccccc3)c2C)ccc1CN[C@H](CO)C(=O)O [Compound 38, reference compound]
[B] CC(=O)NCCNCc1ccc(NCc2cccc(-c3ccccc3)c2C)cc1OCc1cccc(C#N)c1 [Compound 1]
[C] Cc1c(CN(C)c2ccc(CNCCO)c(OCc3cccc(C#N)c3)c2)cccc1-c1ccccc1 [Compound 27]
[D] Cc1cc(CN2C[C@@H](O)CC2=O)c(OCc2cncc(C#N)c2)cc1NCc1cccc(-c2ccccc2)c1C [Compound 23]
// ascending sort on recorded pIC50 Your task in answering is to list the labels in the requested order.
C, B, A, D
(C: 4.65, B: 5.31, A: 5.98, D: 7.44)

[I] Cc1cc(NCc2cccc(-c3ccccc3)c2C)cc(OCc2cccc(C#N)c2)c1CN[C@H](CO)C(=O)O [Compound 6]
[II] Cc1cc(CN[C@@H](CO)CC(=O)O)c(OCc2cncc(C#N)c2)cc1NCc1cccc(-c2ccccc2)c1C [Compound 18]
[III] COc1cc(NCc2cccc(-c3ccccc3)c2C)c(Cl)cc1CN[C@H](CO)C(=O)O [Compound 11]
# sort list by recorded pIC50, greatest to least Your task in answering is to list the labels in the requested order.
II, III, I

[1] Cc1cc(CN[C@H](CO)C(=O)O)c(OCc2cncc(C#N)c2)cc1NCc1cccc(-c2ccccc2)c1C(F)(F)F [Compound 29]
[2] Cc1cc(NCc2cccc(-c3ccccc3)c2C)cc(OCc2cncc(C#N)c2)c1CN[C@H](CO)C(=O)O [Compound 7]
For the pair 1 and 2 , which member has the lower pIC50 number? Return value: the label identifying the chosen record.
1
(1: 6.21, 2: 6.44)

Where these numbers come from: patent US20230303494A1
